- target_system: hOGA (Homo sapiens, UniProt O60502)
- Construct: made in house
- Sequence (O60502 whole entry): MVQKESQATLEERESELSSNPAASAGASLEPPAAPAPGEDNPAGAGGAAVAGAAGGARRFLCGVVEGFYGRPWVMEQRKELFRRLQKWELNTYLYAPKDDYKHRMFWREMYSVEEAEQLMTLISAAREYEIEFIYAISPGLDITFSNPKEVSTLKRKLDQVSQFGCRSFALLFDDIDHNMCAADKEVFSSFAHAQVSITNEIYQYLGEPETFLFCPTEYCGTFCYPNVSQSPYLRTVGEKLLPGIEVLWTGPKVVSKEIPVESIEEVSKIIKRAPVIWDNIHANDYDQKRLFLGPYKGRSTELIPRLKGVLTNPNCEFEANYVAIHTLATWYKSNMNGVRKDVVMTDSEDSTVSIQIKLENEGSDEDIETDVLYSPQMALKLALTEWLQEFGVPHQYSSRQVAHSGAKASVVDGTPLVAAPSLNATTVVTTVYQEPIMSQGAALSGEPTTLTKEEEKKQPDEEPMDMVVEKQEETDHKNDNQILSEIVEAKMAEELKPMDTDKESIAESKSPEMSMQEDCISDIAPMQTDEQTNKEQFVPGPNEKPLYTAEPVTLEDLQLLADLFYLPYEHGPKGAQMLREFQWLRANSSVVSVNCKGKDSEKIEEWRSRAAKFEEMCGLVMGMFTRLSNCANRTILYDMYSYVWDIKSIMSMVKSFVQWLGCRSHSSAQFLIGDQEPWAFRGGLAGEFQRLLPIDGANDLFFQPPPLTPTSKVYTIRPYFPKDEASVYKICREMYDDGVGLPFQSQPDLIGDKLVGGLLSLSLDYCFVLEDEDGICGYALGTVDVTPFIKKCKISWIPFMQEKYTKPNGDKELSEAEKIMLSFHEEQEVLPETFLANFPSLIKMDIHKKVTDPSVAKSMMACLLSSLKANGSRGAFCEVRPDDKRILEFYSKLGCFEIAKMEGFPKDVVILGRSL
- protocol_notes: hOGA steady-state kinetics, fluorogenic assay, competitive inhibition fit
- Format: biochemical
- measurement_context: pH 6.6 (maximum potency)
recorded_endpoint: pKi
Just so you know, pKi here is -log10 of the concentration in molar units; reply with that number alone.

Endpoint output: pKi of CC(C)C(=O)N[C@H]1c2nc(CCc3ccccc3)cn2[C@H](CO)[C@@H](O)[C@@H]1O [GlcNAcstatin C] . Value?
8.54

* * *

- target_system: hHexA/B
- protocol_notes: hHexA/B inhibition, fluorogenic 4MU-NAG substrate
- Assay type: biochemical, human
- measurement_context: read-out: Ki hHex A/B
Ki listing for selected compounds.
Write it as a number; the unit µM goes unstated.

> print(dat)
                         chemical.structure  target.system  measure.unit  val
1  O=C(CCS)N[C@H]1c2nc(CCc3ccccc3)cn2[C@H](CO)[C@@H](O)[C@@H]1O        hHexA/B            µM   11

Kindly state the measured Ki obtained for CC(C)C(=O)N[C@H]1c2nc(CCc3ccccc3)cn2[C@H](CO)[C@@H](O)[C@@H]1O with hHexA/B.
0.6

* * *

- target_system: CpOGA-wild-type (Clostridium perfringens, UniProt Q0TR53)
- Sequence (Q0TR53 31-624 limits assumed): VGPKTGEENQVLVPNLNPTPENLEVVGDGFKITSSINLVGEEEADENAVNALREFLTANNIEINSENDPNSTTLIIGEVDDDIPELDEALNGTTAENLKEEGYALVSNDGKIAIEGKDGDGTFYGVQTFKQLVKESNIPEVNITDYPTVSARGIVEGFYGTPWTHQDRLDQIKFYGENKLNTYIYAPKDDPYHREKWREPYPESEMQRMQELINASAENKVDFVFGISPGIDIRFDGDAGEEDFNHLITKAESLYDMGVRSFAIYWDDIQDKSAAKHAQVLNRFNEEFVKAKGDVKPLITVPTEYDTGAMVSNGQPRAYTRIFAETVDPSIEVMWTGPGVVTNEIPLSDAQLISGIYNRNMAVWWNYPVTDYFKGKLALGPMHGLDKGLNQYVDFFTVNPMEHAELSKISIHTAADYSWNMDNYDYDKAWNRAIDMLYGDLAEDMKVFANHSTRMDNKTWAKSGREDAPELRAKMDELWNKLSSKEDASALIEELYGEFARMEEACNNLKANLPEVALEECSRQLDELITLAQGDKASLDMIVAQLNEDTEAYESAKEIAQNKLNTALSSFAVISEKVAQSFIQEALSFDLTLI
- protocol_notes: biochemical
- Design: species or system C. perfringens
recorded_endpoint: pKi
Just so you know, pKi here is -log10 of the concentration in molar units; reply with that number alone.

# count of solved cases: 2
> print(dat)
                                   molecule    val
1  C=CC=CC(=O)NC1c2nc(CCc3ccccc3)cn2C(CO)C(O)C1O (stereo not drawn)  11.11
2  O=C(CCS)N[C@H]1c2nc(CCc3ccccc3)cn2[C@H](CO)[C@@H](O)[C@@H]1O  11.49

# input for lookup
Kindly state the measured pKi obtained for CC(=O)N[C@H]1/C(=N/OC(=O)Nc2ccccc2)O[C@H](CO)[C@@H](O)[C@@H]1O [PUGNAc, reference compound] with CpOGA-wild-type (Clostridium perfringens, UniProt Q0TR53).
8.27

* * *

pKi listing for selected compounds.
- target_system: hOGA (Homo sapiens)
- Construct: made in house
- protocol_notes: hOGA steady-state kinetics, fluorogenic assay, competitive inhibition fit
- Format: biochemical
- measurement_context: physiological pH 7.3
Just so you know, pKi here is -log10 of the concentration in molar units; reply with that number alone.

> print(dat)
                                   compound   val
1  CCCCC(=O)N[C@H]1c2nc(CCc3ccccc3)cn2[C@H](CO)[C@@H](O)[C@@H]1O  8.59
2  CC(C)C(=O)N[C@H]1c2nc(CCc3ccccc3)cn2[C@H](CO)[C@@H](O)[C@@H]1O  8.49
3  C=CC=CC(=O)NC1c2nc(CCc3ccccc3)cn2C(CO)C(O)C1O (stereo not shown)  8.39

Endpoint output: pKi of O=C(CCS)N[C@H]1c2nc(CCc3ccccc3)cn2[C@H](CO)[C@@H](O)[C@@H]1O . Value?
7.95

# credit: paper PMC3032886
